Experimental system: Sho1, P40073
Sequence (P40073 287-367): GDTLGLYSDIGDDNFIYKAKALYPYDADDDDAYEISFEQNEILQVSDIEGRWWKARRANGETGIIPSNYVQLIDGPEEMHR
Measurement notes: SPOT array
Test context: median of control spots 1148
// boundary case: SPOT intensity equal to 60 maps to No; strictly smaller maps to Yes

| Binder | Assigned class |
| --- | --- |
| KIRRSSLMIPNPQQF | Yes |

Hi there! Is SPOT intensity for KMSRSPPRPPSLKII below 60, do you know?
Yes

Would you kindly verify if SPOT intensity of VRTRRRPPPPPIPST is strictly less than 60?
Yes

Identify whether the binder RMVRRRPLRVQFSAR records SPOT intensity below 60.
No

Report whether reported SPOT intensity is lower than 60 (strictly) for RRASLFPRDPKRLRP
No

Hello, I'm reviewing records and need to know if SPOT intensity of ILARAILTIPRVLDK is below 60. Could you check?
No
